- test description: activity coefficient (dimensionless); of the first substance listed, at infinite dilution; xn = mol fraction of the nth substance listed
- applied conditions: 308.15 K; 101 kPa; Liquid; Chromatography; x1 = 0
metric: activity coefficient
The answer should be written as a number, with no unit following it.

c1ccsc1 [thiophene] + CCCCCCOCn1cc[n+](C)c1.O=S(=O)([N-]S(=O)(=O)C(F)(F)F)C(F)(F)F :: 0.744
Cc1ccccc1 [toluene] + CCCCCCOCn1cc[n+](C)c1.O=S(=O)([N-]S(=O)(=O)C(F)(F)F)C(F)(F)F :: 1.06
CCOCC [diethyl ether] + CCCCCCOCn1cc[n+](COCCCCCC)c1.O=S(=O)([N-]S(=O)(=O)C(F)(F)F)C(F)(F)F :: 0.826
CCCCCCCCCC [decane] + CCCCCCOCn1cc[n+](COCCCCCC)c1.O=S(=O)([N-]S(=O)(=O)C(F)(F)F)C(F)(F)F :: 7
CCCCCCCCCC [decane] + CCCCCCOCn1cc[n+](C)c1.O=S(=O)([N-]S(=O)(=O)C(F)(F)F)C(F)(F)F :: 21.7
c1ccccc1 [benzene] + CCCCCCOCn1cc[n+](COCCCCCC)c1.O=S(=O)([N-]S(=O)(=O)C(F)(F)F)C(F)(F)F :: 0.608

get_value(item= CCOCC [diethyl ether] + CCCCCCOCn1cc[n+](C)c1.O=S(=O)([N-]S(=O)(=O)C(F)(F)F)C(F)(F)F , readout=activity coefficient) returns 1.37

get_value(item= C1CCCCC1 [cyclohexane] + CCCCCCOCn1cc[n+](C)c1.O=S(=O)([N-]S(=O)(=O)C(F)(F)F)C(F)(F)F , readout=activity coefficient) returns 5.14

get_value(item= CCc1ccccc1 [ethylbenzene] + CCCCCCOCn1cc[n+](COCCCCCC)c1.O=S(=O)([N-]S(=O)(=O)C(F)(F)F)C(F)(F)F , readout=activity coefficient) returns 0.966

get_value(item= C#CCCC [1-pentyne] + CCCCCCOCn1cc[n+](C)c1.O=S(=O)([N-]S(=O)(=O)C(F)(F)F)C(F)(F)F , readout=activity coefficient) returns 1.56

get_value(item= C=CCCC [1-pentene] + CCCCCCOCn1cc[n+](COCCCCCC)c1.O=S(=O)([N-]S(=O)(=O)C(F)(F)F)C(F)(F)F , readout=activity coefficient) returns 1.87

get_value(item= C1CCOC1 [tetrahydrofuran] + CCCCCCOCn1cc[n+](COCCCCCC)c1.O=S(=O)([N-]S(=O)(=O)C(F)(F)F)C(F)(F)F , readout=activity coefficient) returns 0.304

get_value(item= C#CCCCCCC [1-octyne] + CCCCCCOCn1cc[n+](COCCCCCC)c1.O=S(=O)([N-]S(=O)(=O)C(F)(F)F)C(F)(F)F , readout=activity coefficient) returns 1.66

get_value(item= c1ccsc1 [thiophene] + CCCCCCOCn1cc[n+](COCCCCCC)c1.O=S(=O)([N-]S(=O)(=O)C(F)(F)F)C(F)(F)F , readout=activity coefficient) returns 0.575

get_value(item= C1CCOC1 [tetrahydrofuran] + CCCCCCOCn1cc[n+](C)c1.O=S(=O)([N-]S(=O)(=O)C(F)(F)F)C(F)(F)F , readout=activity coefficient) returns 0.438

get_value(item= O [water] + CCCCCCOCn1cc[n+](C)c1.O=S(=O)([N-]S(=O)(=O)C(F)(F)F)C(F)(F)F , readout=activity coefficient) returns 3.81

get_value(item= CCO [ethanol] + CCCCCCOCn1cc[n+](C)c1.O=S(=O)([N-]S(=O)(=O)C(F)(F)F)C(F)(F)F , readout=activity coefficient) returns 1.44

Origin of measurements: the NIST ThermoML archive (doi:10.1016/j.fluid.2009.08.017)
